Target: human GPBAR1 (Homo sapiens)
Construct: expressed in transfected cells; host or cells: HEK-293T
Sequence (Q8TDU6 whole entry): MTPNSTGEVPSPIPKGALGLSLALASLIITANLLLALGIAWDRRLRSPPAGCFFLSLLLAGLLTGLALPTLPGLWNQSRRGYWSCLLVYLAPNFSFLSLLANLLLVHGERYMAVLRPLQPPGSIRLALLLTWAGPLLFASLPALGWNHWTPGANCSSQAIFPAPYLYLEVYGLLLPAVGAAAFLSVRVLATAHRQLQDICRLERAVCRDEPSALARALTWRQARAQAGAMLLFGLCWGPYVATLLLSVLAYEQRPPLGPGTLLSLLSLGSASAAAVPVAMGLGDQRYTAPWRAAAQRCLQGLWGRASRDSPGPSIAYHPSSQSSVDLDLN
Assay: GPBAR1 mediated transactivation (CRE luciferase reporter) in transfected HEK-293T cells
Assay type: cell-based
Conditions: each compound at 10 microM, transactivation activity of TLCA on CRE = 100%
Kind request: treat 70% as inclusive, so GPBAR1 (% of activity in comparison to 10 μM TLCA) at 70% or higher is 1, anything lower is -1.

Ask: Dear colleague, could you confirm whether CC[C@@H]1[C@H](O)[C@@H]2[C@H](CC[C@]3(C)[C@@H]([C@H](C)CCCO)CC[C@@H]23)[C@@]2(C)CC[C@H](O)C[C@@H]12 [BAR708, 6β-ethyl-3β,7β-dihydroxy-5β-cholan-24-ol] has GPBAR1 (% of activity in comparison to 10 μM TLCA) at or above 70%?
Reply: -1

Ask: Please answer likewise for CC[C@@H]1[C@@H](O)[C@@H]2[C@H](CC[C@]3(C)[C@@H]([C@H](C)CCCO)CC[C@@H]23)[C@@]2(C)CCCC[C@@H]12 [BAR705, 6β-ethyl-7α-hydroxy-5β-cholan-24-ol]
Reply: -1

Ask: Now the compound C[C@H](CCOS(=O)(=O)[O-])[C@H]1CC[C@H]2[C@@H]3[C@@H](O)C[C@@H]4C[C@H](O)CC[C@]4(C)[C@H]3CC[C@]12C.[Na+]
Reply: -1

Ask: Try the compound CC[C@@H]1[C@@H](O)[C@@H]2[C@H](CC[C@]3(C)[C@@H]([C@H](C)CCCO)CC[C@@H]23)[C@@]2(C)CC[C@@H](O)C[C@@H]12 [BAR504-6b, 6β-ethyl-3α,7α-dihydroxy-5β-cholan-24-ol]
Reply: 1

Ask: Next entry: CC[C@H]1[C@@H](O)C2C3CC[C@H]([C@H](C)CCCO)[C@@]3(C)CCC2[C@@]2(C)CC[C@@H](O)C[C@@H]12 (stereo partly drawn)
Reply: 1

Ask: Would you mind doing CC[C@@H]1[C@H](O)C2C3CC[C@H]([C@H](C)CCO)[C@@]3(C)CCC2[C@@]2(C)CC[C@@H](O)C[C@@H]12 (stereo partly drawn) as well?
Reply: 1

Ask: Another compound to look at: CC[C@H]1[C@H](O)[C@@H]2[C@H](CC[C@]3(C)[C@@H]([C@H](C)CCCO)CC[C@@H]23)[C@@]2(C)CC[C@@H](O)C[C@@H]12 [BAR501-6a, 6α-ethyl-3α,7β-dihydroxy-5β-cholan-24-ol]
Reply: -1

Ask: What about CC[C@H]1[C@@H](O)C2C3CC[C@H]([C@H](C)CCO)[C@@]3(C)CCC2[C@@]2(C)CCCC[C@@H]12 (stereo partly drawn) ?
Reply: -1

Ask: What do we get for C[C@H](CC(=O)O)[C@H]1CCC2C3CC[C@@H]4CCCC[C@]4(C)C3CC[C@@]21C (stereo partly drawn) ?
Reply: -1

Ask: Also need CC=C1[C@H](O)[C@@H]2[C@H](CC[C@]3(C)[C@@H]([C@H](C)CCCO)CC[C@@H]23)[C@@]2(C)CC[C@@H](O)C[C@@H]12 , thanks.
Reply: -1

----------
Molecular target: FXR (Homo sapiens)
Construct: expressed in transfected cells; host or cells: HepG2
Sequence (Q96RI1 whole entry, species assumed): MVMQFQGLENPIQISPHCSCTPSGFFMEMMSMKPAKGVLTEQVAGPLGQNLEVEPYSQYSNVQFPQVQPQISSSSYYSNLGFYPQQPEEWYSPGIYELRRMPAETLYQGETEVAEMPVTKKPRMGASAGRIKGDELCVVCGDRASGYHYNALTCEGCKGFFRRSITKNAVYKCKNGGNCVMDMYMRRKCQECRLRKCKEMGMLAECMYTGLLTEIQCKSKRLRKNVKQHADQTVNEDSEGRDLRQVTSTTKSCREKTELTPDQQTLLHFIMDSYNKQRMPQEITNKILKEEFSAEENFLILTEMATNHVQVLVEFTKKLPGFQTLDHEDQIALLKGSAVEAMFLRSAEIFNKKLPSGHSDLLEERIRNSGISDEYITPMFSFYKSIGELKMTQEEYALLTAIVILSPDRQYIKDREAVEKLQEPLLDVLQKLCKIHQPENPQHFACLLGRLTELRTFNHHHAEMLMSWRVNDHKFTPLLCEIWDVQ
Sequence (P19793 whole entry partner, species assumed): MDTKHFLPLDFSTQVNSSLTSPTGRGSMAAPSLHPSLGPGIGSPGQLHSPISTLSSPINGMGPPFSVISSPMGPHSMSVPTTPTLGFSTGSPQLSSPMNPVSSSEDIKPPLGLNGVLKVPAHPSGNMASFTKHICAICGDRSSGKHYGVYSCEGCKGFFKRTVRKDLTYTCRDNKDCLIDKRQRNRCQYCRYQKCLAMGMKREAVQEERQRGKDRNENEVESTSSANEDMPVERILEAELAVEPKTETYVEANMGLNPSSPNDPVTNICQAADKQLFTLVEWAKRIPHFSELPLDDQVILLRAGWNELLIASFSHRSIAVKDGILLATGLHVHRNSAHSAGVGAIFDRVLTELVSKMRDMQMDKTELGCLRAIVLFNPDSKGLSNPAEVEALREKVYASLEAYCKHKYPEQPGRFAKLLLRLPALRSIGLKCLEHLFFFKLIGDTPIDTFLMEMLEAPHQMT
Assay: FXR mediated transactivation (luciferase reporter) in transfected HepG2 cells
Type: cell-based
Conditions: each compound at 10 microM, transactivation activity of CDCA on FXR = 100%
measuredMetric: FXR (% of activity in comparison to 10 μM CDCA)
Reply with the number, then its unit.

Ask: Please report the recorded FXR (% of activity in comparison to 10 μM CDCA) for CC[C@H]1[C@@H](O)C2C3CC[C@H]([C@H](C)CCO)[C@@]3(C)CCC2[C@@]2(C)CC[C@H](O)C[C@@H]12 (some centres unmarked) .
Reply: 197.5 ± 4.5%

Ask: Can you handle CC[C@H]1[C@@H](O)C2C3CC[C@H]([C@H](C)CC(=O)O)[C@@]3(C)CCC2[C@@]2(C)CC[C@H](O)C[C@@H]12 (some centres unmarked) next?
Reply: 142 ± 1.0%

Ask: Same for CC[C@H]1[C@@H](O)C2C3CC[C@H]([C@H](C)CCO)[C@@]3(C)CCC2[C@@]2(C)CC[C@@H](O)C[C@@H]12 (some centres unmarked)
Reply: 263.0 ± 32.0%

Ask: And what about the compound CC[C@H]1[C@@H](O)C2C3CC[C@H]([C@H](C)CC(=O)O)[C@@]3(C)CCC2[C@@]2(C)CCCC[C@@H]12 (some centres unmarked) ?
Reply: 202.5 ± 1.5%

Ask: Query CC[C@@H]1[C@H](O)[C@@H]2[C@H](CC[C@]3(C)[C@@H]([C@H](C)CCCO)CC[C@@H]23)[C@@]2(C)CCCC[C@@H]12 [BAR702, 6β-ethyl-7β-hydroxy-5β-cholan-24-ol] next
Reply: 11.7 ± 0.8%

Ask: Param item: CC[C@@H]1[C@H](O)C2C3CC[C@H]([C@H](C)CCO)[C@@]3(C)CCC2[C@@]2(C)CC[C@@H](O)C[C@@H]12 (some centres unmarked)
Reply: 8.5 ± 1.4%

Ask: Same again, this time with CC[C@H]1[C@@H](O)[C@@H]2[C@H](CC[C@]3(C)[C@@H]([C@H](C)CCC(=O)O)CC[C@@H]23)[C@@]2(C)CCCC[C@@H]12
Reply: 220.5 ± 37.5%

Ask: What do you get for CC[C@H]1[C@H](O)[C@@H]2[C@H](CC[C@]3(C)[C@@H]([C@H](C)CCCO)CC[C@@H]23)[C@@]2(C)CC[C@@H](O)C[C@@H]12 [BAR501-6a, 6α-ethyl-3α,7β-dihydroxy-5β-cholan-24-ol] ?
Reply: 15.4 ± 1.2%

Ask: Then this compound: CC[C@H]1[C@@H](O)C2C3CC[C@H]([C@H](C)CCCO)[C@@]3(C)CCC2[C@@]2(C)CC[C@@H](O)C[C@@H]12 (some centres unmarked)
Reply: 488.5 ± 17.5%

Ask: Would you kindly repeat that for CC[C@H]1[C@@H](O)C2C3CC[C@H]([C@H](C)CCO)[C@@]3(C)CCC2[C@@]2(C)CCCC[C@@H]12 (some centres unmarked) ?
Reply: 90 ± 22%

Ask: Then what about the compound CC[C@H]1[C@@H](O)[C@@H]2[C@H](CC[C@]3(C)[C@@H]([C@H](C)CCCOS(=O)(=O)[O-])CC[C@@H]23)[C@@]2(C)CCCC[C@@H]12.[Na+] ?
Reply: 229 ± 2.0%

Ask: Further, for CC=C1[C@H](O)[C@@H]2[C@H](CC[C@]3(C)[C@@H]([C@H](C)CCCO)CC[C@@H]23)[C@@]2(C)CC[C@@H](O)C[C@@H]12 ?
Reply: 68.8 ± 26.6%

Ask: What about this compound? CC[C@@H]1[C@@H](O)[C@@H]2[C@H](CC[C@]3(C)[C@@H]([C@H](C)CCCO)CC[C@@H]23)[C@@]2(C)CCCC[C@@H]12 [BAR705, 6β-ethyl-7α-hydroxy-5β-cholan-24-ol]
Reply: 43.7 ± 3.9%

Ask: Okay, and CC[C@H]1[C@@H](O)C2C3CC[C@H]([C@H](C)CC#N)[C@@]3(C)CCC2[C@@]2(C)CC[C@@H](O)C[C@@H]12 (some centres unmarked) ?
Reply: 411.5 ± 36.5%

Ask: Now consider CC[C@H]1[C@@H](O)[C@@H]2[C@H](CC[C@]3(C)[C@@H]([C@H](C)CCCO)CC[C@@H]23)[C@@]2(C)CCCC[C@@H]12 [BAR701, 6α-ethyl-7α-hydroxy-5β-cholan-24-ol] .
Reply: 101.3 ± 10.1%

Ask: Also, CC[C@H]1[C@H](O)[C@@H]2[C@H](CC[C@]3(C)[C@@H]([C@H](C)CCCO)CC[C@@H]23)[C@@]2(C)CC[C@H](O)C[C@@H]12 [BAR707, 6α-ethyl-3β,7β-dihydroxy-5β-cholan-24-ol] please.
Reply: 92.5 ± 7.5%

Ask: Another compound: C[C@H](CCO)[C@H]1CCC2C3C(CC[C@@]21C)[C@@]1(C)CC[C@@H](O)C[C@H]1C[C@@H]3O (stereo partly drawn) [BAR107, 3α,7β-dihydroxy-24-nor-5β-cholan-23-ol]
Reply: 1.8 ± 0.3%

Ask: // same read-out, input: CC[C@@H]1[C@H](O)[C@@H]2[C@H](CC[C@]3(C)[C@@H]([C@H](C)CCCO)CC[C@@H]23)[C@@]2(C)CC[C@H](O)C[C@@H]12 [BAR708, 6β-ethyl-3β,7β-dihydroxy-5β-cholan-24-ol]
Reply: 6.4 ± 0.8%

Ask: And then C[C@H](CCCCCO)[C@H]1CCC2C3C(CC[C@@]21C)[C@@]1(C)CC[C@@H](O)C[C@H]1C[C@@H]3O (some centres unmarked) , what is it?
Reply: 0%

Ask: Try the compound C[C@H](CC(=O)O)[C@H]1CCC2C3CC[C@@H]4CCCC[C@]4(C)C3CC[C@@]21C (some centres unmarked)
Reply: 27.0 ± 1.5%

Ask: // repeat for C[C@H](CCCOS(=O)(=O)O)[C@H]1CCC2C3CC[C@@H]4CCCC[C@]4(C)C3CC[C@@]21C (some centres unmarked) and report
Reply: 177.1 ± 3.5%

Ask: Entry CC[C@H]1[C@H](O)[C@@H]2[C@H](CC[C@]3(C)[C@@H]([C@H](C)CCCO)CC[C@@H]23)[C@@]2(C)CCCC[C@@H]12 [BAR703, 6α-ethyl-7β-hydroxy-5β-cholan-24-ol] please
Reply: 8.6 ± 0.8%

Ask: Okay, and CC[C@H]1[C@@H](O)C2C3CC[C@H]([C@H](C)CCCCCO)[C@@]3(C)CCC2[C@@]2(C)CC[C@@H](O)C[C@@H]12 (some centres unmarked) ?
Reply: 122.5 ± 5.5%
